Collected pIC50 values appear next to each entry.
system: BXPC-3; assay: Antiproliferation MTS assay, pancreatic cancer cells; type: cell-based; conditions: Homo sapiens, BXPC-3; 72 hrs, MTS
In plain terms, pIC50 is the concentration in mol/L turned into minus its base-10 logarithm.

Cn1cc(C2=C(c3coc4cc(F)c(F)cc34)C(=O)NC2=O)c2ccc3ccccc3c21 [Compound 55]; 5.15

Input: Which pIC50 value is on record for COc1cccc2c(C3=C(c4cn(C)c5cc(C(F)(F)F)ccc45)C(=O)NC3=O)coc12 [Compound 49] ?
Output: 5.22

* * *

biological target: CDK-3/cyclinE (Homo sapiens, UniProt Q00526); assay: biochemical
Sequence (Q00526 whole entry, species assumed): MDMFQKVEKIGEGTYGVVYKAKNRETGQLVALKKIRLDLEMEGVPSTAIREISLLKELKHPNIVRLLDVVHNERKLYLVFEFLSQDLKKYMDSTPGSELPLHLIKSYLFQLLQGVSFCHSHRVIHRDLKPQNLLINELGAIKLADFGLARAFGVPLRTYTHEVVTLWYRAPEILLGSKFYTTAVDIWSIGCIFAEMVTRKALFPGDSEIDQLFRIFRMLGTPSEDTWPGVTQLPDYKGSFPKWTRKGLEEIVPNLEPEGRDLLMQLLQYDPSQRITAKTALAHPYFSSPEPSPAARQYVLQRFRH
Sequence (P24864 whole entry partner, species assumed): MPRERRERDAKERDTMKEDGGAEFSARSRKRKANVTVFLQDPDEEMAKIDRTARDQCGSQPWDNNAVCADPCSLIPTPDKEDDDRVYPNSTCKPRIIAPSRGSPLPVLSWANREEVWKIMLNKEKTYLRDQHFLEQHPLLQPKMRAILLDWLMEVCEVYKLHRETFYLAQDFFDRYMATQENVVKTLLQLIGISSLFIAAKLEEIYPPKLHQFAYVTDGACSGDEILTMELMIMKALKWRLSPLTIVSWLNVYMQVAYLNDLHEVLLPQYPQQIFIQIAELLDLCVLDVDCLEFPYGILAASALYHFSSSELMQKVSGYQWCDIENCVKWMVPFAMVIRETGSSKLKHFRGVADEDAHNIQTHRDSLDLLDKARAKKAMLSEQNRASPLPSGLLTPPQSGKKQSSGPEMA
pIC50: −log10 of the molar value.
assay_readout: pIC50

Input: What value of measured pIC50 is listed for COc1cccc2c(C3=C(c4cn(C)c5cc(Cl)c(F)cc45)C(=O)NC3=O)coc12 ?
Output: < 4.00

Origin of the recorded values: patent US8207216B2
